Reported Kd values follow for various compounds
Molecular target: KIT kinase (Homo sapiens (Human))
Sequence (P10721 26-976): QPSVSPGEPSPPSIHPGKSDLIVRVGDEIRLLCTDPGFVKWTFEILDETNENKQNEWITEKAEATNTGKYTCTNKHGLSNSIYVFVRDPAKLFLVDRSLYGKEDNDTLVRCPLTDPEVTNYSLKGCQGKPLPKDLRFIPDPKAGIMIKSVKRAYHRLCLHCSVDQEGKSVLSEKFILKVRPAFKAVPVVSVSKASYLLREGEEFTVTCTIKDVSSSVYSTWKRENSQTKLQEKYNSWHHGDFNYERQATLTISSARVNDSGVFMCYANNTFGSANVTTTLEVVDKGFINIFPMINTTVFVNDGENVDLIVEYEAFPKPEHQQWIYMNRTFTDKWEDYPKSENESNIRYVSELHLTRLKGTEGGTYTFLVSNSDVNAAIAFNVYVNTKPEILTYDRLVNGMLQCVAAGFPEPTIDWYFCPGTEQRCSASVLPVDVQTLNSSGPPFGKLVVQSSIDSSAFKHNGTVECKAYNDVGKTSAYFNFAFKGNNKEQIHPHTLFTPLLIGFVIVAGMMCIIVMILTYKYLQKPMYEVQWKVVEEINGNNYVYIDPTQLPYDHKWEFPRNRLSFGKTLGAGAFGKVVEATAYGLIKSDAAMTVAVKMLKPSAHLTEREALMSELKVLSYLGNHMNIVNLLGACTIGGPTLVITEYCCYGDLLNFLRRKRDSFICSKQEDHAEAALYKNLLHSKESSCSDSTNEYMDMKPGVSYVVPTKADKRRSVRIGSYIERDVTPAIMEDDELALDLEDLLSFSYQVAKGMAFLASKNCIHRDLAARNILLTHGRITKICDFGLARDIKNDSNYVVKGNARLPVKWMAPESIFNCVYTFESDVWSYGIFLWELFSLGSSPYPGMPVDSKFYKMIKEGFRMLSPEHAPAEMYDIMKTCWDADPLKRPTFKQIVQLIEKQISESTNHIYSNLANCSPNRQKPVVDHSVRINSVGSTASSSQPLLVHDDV
Assay: Competition binding assay (Kd), KIT
Details: competition binding assay

Given COc1cc2ncc(-c3ccc(CC(=O)Nc4cc(C5(C(F)(F)F)CC5)on4)c(F)c3)nc2cc1OCCN(C)C , respond with its Kd.
< 5 nM

Given COc1cc2nc(-c3ccc(CC(=O)Nc4cc(C(C)(C)C(F)(F)F)on4)c(F)c3)cnc2cc1O , respond with its Kd.
5 to 20 nM

Next:
Given CC(=O)OCCOc1cc2ncc(-c3ccc(CC(=O)Nc4cc(C5(C(F)(F)F)CC5)on4)c(F)c3)nc2cc1OCCOC(C)=O , respond with its Kd.
5 to 20 nM

Given CN(C)CCNC(=O)c1cc2cc(-c3ccc(CC(=O)Nc4cc(C5(C(F)(F)F)CC5)on4)c(F)c3)cnc2[nH]1 , respond with its Kd.
< 5 nM

Given COc1cc2nc(-c3ccc(CC(=O)Nc4cc(C(C)(C)C(F)(F)F)on4)c(F)c3)cnc2cc1OC1COC1 , respond with its Kd.
< 5 nM

Given CN(C)NC(=O)c1cc2cc(-c3ccc(CC(=O)Nc4cc(C5(C(F)(F)F)CC5)on4)c(F)c3)cnc2[nH]1 , respond with its Kd.
< 5 nM

Given COc1cc2cc(-c3ccc(CC(=O)Nc4cc(C(C)(C)C(F)(F)F)on4)c(F)c3)cnc2cc1OC , respond with its Kd.
< 5 nM

----------
Reported Kd values follow for various molecules
Molecular target: UniProtKB P10721
Assay: Competition binding assay (Kd), KIT
Settings: competition binding

Given COc1cc2nc(-c3ccc(CC(=O)Nc4cc(C(C)(C)C(F)(F)F)on4)c(F)c3)cnc2cc1OCCCN1CCOCC1 [Example 209] , respond with its Kd.
< 5 nM

Next:
Given COc1cc2nc(-c3ccc(CC(=O)Nc4cc(C5(C(F)(F)F)CC5)on4)c(F)c3)cnc2cc1OCCCNC(C)=O [Example 237] , respond with its Kd.
< 5 nM

Given COc1cc2nc(-c3ccc(CC(=O)Nc4cc(C5(C(F)(F)F)CC5)on4)c(F)c3)cnc2cc1OCCN1CCO[C@@H](C)C1 [Example 248] , respond with its Kd.
< 5 nM

Given COc1cc2nc(-c3ccc(CC(=O)Nc4cc(C5(C(F)(F)F)CC5)on4)c(F)c3)cnc2cc1OCCCS(C)(=O)=O [Example 222] , respond with its Kd.
< 5 nM

Given COc1cc2ncc(-c3ccc(CC(=O)Nc4cc(C5(C(F)(F)F)CC5)on4)c(F)c3)nc2cc1OCC(O)CO (centres unmarked) [Example 236] , respond with its Kd.
< 5 nM

Given COc1cc2ncc(-c3ccc(CC(=O)Nc4cc(C(C)(C)C(F)(F)F)on4)c(F)c3)nc2cc1OCCN1CC[C@H](O)C1 [Example 191] , respond with its Kd.
< 5 nM

Given COc1cc2ncc(-c3ccc(CC(=O)Nc4cc(C5(C(F)(F)F)CC5)on4)c(F)c3)cc2cc1OCCNC(C)=O [Example 193] , respond with its Kd.
< 5 nM

Given COc1cc2ncc(-c3ccc(CC(=O)Nc4cc5n(n4)CCC5(C)C)c(F)c3)nc2cc1OC [Example 194] , respond with its Kd.
< 5 nM

Given CC(=O)NCCOc1cc2ncc(-c3ccc(CC(=O)Nc4cc(C(C)(C)C(F)(F)F)on4)c(F)c3)nc2cc1OCCNC(C)=O [Example 220] , respond with its Kd.
< 5 nM

Given COc1cc2nc(-c3ccc(CC(=O)Nc4cc(C5(C(F)(F)F)CC5)on4)c(F)c3)cnc2cc1OC[C@@H](C)O [Example 208] , respond with its Kd.
< 5 nM

Given COc1cc2nc(-c3ccc(CC(=O)Nc4cc(C5(C(F)(F)F)CC5)on4)cc3)cnc2cc1OCCN1CCOCC1 [Example 231] , respond with its Kd.
< 5 nM

Given COc1cc2ncc(-c3ccc(CC(=O)Nc4cc(C5(C(F)(F)F)CC5)on4)c(F)c3)nc2cc1OCCCN [Example 227] , respond with its Kd.
< 5 nM

Given COc1cc2nc(-c3ccc(CC(=O)Nc4cc(C5(C(F)(F)F)CC5)on4)c(F)c3)cnc2cc1OCC(O)CO (centres unmarked) [Example 238] , respond with its Kd.
< 5 nM

Given COc1cc2ncc(-c3ccc(CC(=O)Nc4cc(C(C)(C)C(F)(F)F)on4)c(F)c3)cc2cc1OCCN [Example 204] , respond with its Kd.
< 5 nM
